From: ChEMBL document CHEMBL6182848

Test: Metabolic stability in mouse liver microsomes assessed as half life measured up to 60 mins in presence of NADPH by LC-MS/MS analysis
Format: ADME, Microsome
quantity: half-life

Req: Given the compound `COc1ccc(CNC(=O)Nc2ccc(-c3ccc(=O)[nH]n3)cc2)c(C(F)(F)F)c1` , what is its reported half-life?
Resp: 0.393 h

Req: Given the compound `O=C(NCc1ccccc1OC(F)(F)F)Nc1ccc(-c2ccc(=O)[nH]n2)cc1` , what is its reported half-life?
Resp: > 3.08 h

Req: Given the compound `O=C(NCc1ccccc1C(F)(F)F)Nc1ccc(-c2ccc(=O)[nH]n2)cc1` , what is its reported half-life?
Resp: > 3.08 h

Req: Given the compound `Cn1nc(-c2ccc(NC(=O)NCc3ccccc3C(F)(F)F)cc2)ccc1=O` , what is its reported half-life?
Resp: > 3.08 h

====

Experiment: Metabolic stability in human liver microsomes assessed as half life measured up to 60 mins in presence of NADPH by LC-MS/MS analysis
Type: ADME, Microsome
Record form. Attribute: half-life. Fill in for each entry.

Req: Given the compound `O=C(NCc1ccccc1C(F)(F)F)Nc1ccc(-c2ccc(=O)[nH]n2)cc1` , what is its reported half-life?
Resp: > 3.08 h

Req: Given the compound `COc1ccc(CNC(=O)Nc2ccc(-c3ccc(=O)[nH]n3)cc2)c(C(F)(F)F)c1` , what is its reported half-life?
Resp: > 3.08 h

Req: Given the compound `O=C(NCc1ccccc1OC(F)(F)F)Nc1ccc(-c2ccc(=O)[nH]n2)cc1` , what is its reported half-life?
Resp: > 3.08 h

Req: Given the compound `Cn1nc(-c2ccc(NC(=O)NCc3ccccc3C(F)(F)F)cc2)ccc1=O` , what is its reported half-life?
Resp: > 3.08 h

====

Experiment: Clearance in male CD-1 mouse at 2 mg/kg, iv measured up to 24 hrs by LC-MS/MS analysis
Format: ADME, organism-based
Settings: in vivo
quantity: clearance (mL/min/kg)
Report the figure in mL/min/kg without appending any unit label.

Req: Given the compound `O=C(NCc1ccccc1OC(F)(F)F)Nc1ccc(-c2ccc(=O)[nH]n2)cc1` , what is its reported clearance?
Resp: 4.8

====

Assay: AUC (0 to infinity) in male CD-1 mouse at 10 mg/kg, po measured up to 24 hrs by LC-MS/MS analysis
Assay type: ADME, organism-based
Conditions: in vivo
quantity: AUC(0-inf) (ng·h/mL)
Report the figure in ng·h/mL without appending any unit label.

Req: Given the compound `O=C(NCc1ccccc1OC(F)(F)F)Nc1ccc(-c2ccc(=O)[nH]n2)cc1` , what is its reported AUC(0-inf)?
Resp: 29700

====

Record form. Attribute: IC50. Fill in for each entry.
Target: Bifunctional epoxide hydrolase 2 (Homo sapiens)
Sequence (P34913 whole entry): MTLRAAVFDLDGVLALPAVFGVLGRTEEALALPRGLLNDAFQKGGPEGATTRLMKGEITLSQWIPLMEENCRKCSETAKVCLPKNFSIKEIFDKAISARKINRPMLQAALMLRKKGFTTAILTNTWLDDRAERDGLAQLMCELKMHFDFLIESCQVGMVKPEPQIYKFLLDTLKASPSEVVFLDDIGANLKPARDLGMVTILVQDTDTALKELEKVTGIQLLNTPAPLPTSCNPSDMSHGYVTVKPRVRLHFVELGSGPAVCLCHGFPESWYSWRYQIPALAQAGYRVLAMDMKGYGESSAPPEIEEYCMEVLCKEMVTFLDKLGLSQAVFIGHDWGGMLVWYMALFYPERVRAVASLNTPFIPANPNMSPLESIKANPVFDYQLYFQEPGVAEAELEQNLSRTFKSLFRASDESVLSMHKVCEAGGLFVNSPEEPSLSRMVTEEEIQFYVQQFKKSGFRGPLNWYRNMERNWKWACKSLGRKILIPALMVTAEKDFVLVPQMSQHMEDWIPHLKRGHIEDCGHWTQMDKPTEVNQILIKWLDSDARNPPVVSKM
Assay: Inhibition of human recombinant sEH expressed in baculovirus infected Sf9 cells using PHOME as substrate preincubated for 10 mins followed by substrate addition measured after 60 mins by fluorescence based assay

Req: Request body: readout IC50, system Bifunctional epoxide hydrolase 2 (Homo sapiens), query `O=C(NCc1cccc(C(F)(F)F)c1)Nc1ccc(-c2ccc(=O)[nH]n2)cc1` . Return the value.
Resp: ≥ 100 nM

Req: Request body: readout IC50, system Bifunctional epoxide hydrolase 2 (Homo sapiens), query `O=C(NCc1ccc(C(F)(F)F)cc1)Nc1ccc(-c2ccc(=O)[nH]n2)cc1` . Return the value.
Resp: ≥ 100 nM

Req: Request body: readout IC50, system Bifunctional epoxide hydrolase 2 (Homo sapiens), query `O=C(NCc1ccccc1F)Nc1ccc(-c2ccc(=O)[nH]n2)cc1` . Return the value.
Resp: ≥ 100 nM

Req: Request body: readout IC50, system Bifunctional epoxide hydrolase 2 (Homo sapiens), query `O=C(Cc1ccccc1C(F)(F)F)Nc1ccc(-c2ccc(=O)[nH]n2)cc1` . Return the value.
Resp: > 100 nM

Req: Request body: readout IC50, system Bifunctional epoxide hydrolase 2 (Homo sapiens), query `O=C(NCc1ccccc1)Nc1ccc(-c2ccc(=O)[nH]n2)cc1` . Return the value.
Resp: > 100 nM

====

Assay: Oral bioavailability in male CD-1 mouse at 10 mg/kg measured up to 24 hrs by LC-MS/MS analysis
Type: ADME, organism-based
Details: in vivo
quantity: bioavailability (%)
Report the figure in % without appending any unit label.

Req: Given the compound `O=C(NCc1ccccc1OC(F)(F)F)Nc1ccc(-c2ccc(=O)[nH]n2)cc1` , what is its reported bioavailability?
Resp: 78

====

Test: C0 in male CD-1 mouse at 2 mg/kg, iv measured up to 24 hrs by LC-MS/MS analysis
Assay type: ADME, organism-based
Details: in vivo
quantity: C0 at 24 h (µg/mL)
Report the figure in µg/mL without appending any unit label.

Req: Given the compound `O=C(NCc1ccccc1OC(F)(F)F)Nc1ccc(-c2ccc(=O)[nH]n2)cc1` , what is its reported C0 at 24 h?
Resp: 4.64

====

Assay: MRT in male CD-1 mouse at 10 mg/kg, po measured up to 24 hrs by LC-MS/MS analysis
Type: ADME, organism-based
Details: in vivo
quantity: MRT
I'd appreciate it if you wrote the number followed by its unit.

Req: Given the compound `O=C(NCc1ccccc1OC(F)(F)F)Nc1ccc(-c2ccc(=O)[nH]n2)cc1` , what is its reported MRT?
Resp: 5.23 h

====

Test: Metabolic stability in human liver microsomes assessed as intrinsic clearance measured up to 60 mins in presence of NADPH by LC-MS/MS analysis
Type: ADME, Microsome
Conditions: 1 h
Record form. Attribute: CLH. Fill in for each entry.

Req: Given the molecule `Cn1nc(-c2ccc(NC(=O)NCc3ccccc3C(F)(F)F)cc2)ccc1=O` , what is its reported CLH?
Resp: < 7.5 µL/min/mg

Req: Given the molecule `COc1ccc(CNC(=O)Nc2ccc(-c3ccc(=O)[nH]n3)cc2)c(C(F)(F)F)c1` , what is its reported CLH?
Resp: < 7.5 µL/min/mg

Req: Given the molecule `O=C(NCc1ccccc1C(F)(F)F)Nc1ccc(-c2ccc(=O)[nH]n2)cc1` , what is its reported CLH?
Resp: < 7.5 µL/min/mg

Req: Given the molecule `O=C(NCc1ccccc1OC(F)(F)F)Nc1ccc(-c2ccc(=O)[nH]n2)cc1` , what is its reported CLH?
Resp: < 7.5 µL/min/mg

====

Experiment: Cmax in male CD-1 mouse at 10 mg/kg, po measured up to 24 hrs by LC-MS/MS analysis
Format: ADME, organism-based
Conditions: in vivo
quantity: Cmax (ng/mL)
Report the figure in ng/mL without appending any unit label.

Req: Given the compound `O=C(NCc1ccccc1OC(F)(F)F)Nc1ccc(-c2ccc(=O)[nH]n2)cc1` , what is its reported Cmax?
Resp: 4700
